Test Details: folding stability dG unfold from chymotrypsin proteolysis; higher = more stable
The threshold is inclusive: folding stability dG unfold of exactly 0.7 kcal/mol counts as label 1; values below receive label 0.

Example cases with answers are listed next.
                           polymer_sequence  class_label
0  SAGGSAGGSAGIKIYAPGFPGMPVEIERDPDEPNVIKIKIKGPDNGEPQERTFPADDLEISAGGSAGGSAGG [r17_341_TrROS]      label 0
1  SAGGSAGGSSPPVTVIPLKIPVDPDTTPEEIKEELAAKVPPNSSVKVDTKPGSGTVNVTVTISSAGGSAGGS [r12_12_JUSTAS]      label 0
2  SAGSVEIKESSLPDSTIITITIPYTSPEEAPERIERLLKELGLSENVQVIEVKYEPSPPVVTVKIKIESAGG [r19_186_JUSTAS]      label 1

Please tell me: is the sequence SAGGSAGGSARIDFPAIRRLLGSEAPAEDVVEAVEVIAKELAEELNLPDVEVDPRVVAPDELESAGGSAGGS [r12_666_TrMRF] at or over 0.7 kcal/mol in terms of folding stability dG unfold?
label 0

###

Test Details: folding stability dG unfold from trypsin proteolysis; higher = more stable
Property Label: folding stability dG unfold (kcal/mol)
Lab book: enter the figure in kcal/mol, no units written.

Below are worked cases with known answers.
                           polymer_sequence  value_measured
0  SAGGSAGGSAMKPERIELPGNEVAVIEKVPEAGVYIVTFKKPEGDEPLGEKIFKPDEIDLKLESAGGSAGGS [r20_190_JUSTAS]           -1.17
1  SAGGSAGGSAPDNVEIEVYELPAGMYRVKIWPPGGNRHEFNFPPGEPKKIKIPPGVSIEIWPFSAGGSAGGS [r12_517_TrROS]           0.462
2  SMTVTTDPSSLTFTLPPTYTSVEQAREALEELGFKLPSSVKSITIESVDEGKNLNTITVTFDDPEALKKLSA [r9_820_JUSTAS]            0.74

Look at this sequence and give its reported folding stability dG unfold. SAGGSAGGEIKAKVPYEKYPKYYKVKVEIYDPNTKKKIEYEALFPKGTKISAEEIAKKIVKKIKSAGGSAGG [r6_233_TrMRF]
0.876

###

Test Details: folding stability dG unfold from trypsin proteolysis; higher = more stable
Property Label: folding stability dG unfold (kcal/mol)
Lab book: enter the figure in kcal/mol, no units written.

                           polymer_sequence               property_label  value_measured
0  SAGGSAGGSAGGTAEIYFPNFPIRIDSVQLSPEKNHVQVSMENPDGPPVKGTMPPKDGILSAGGSAGGSAGG [r7_427_TrROS]  folding stability dG unfold            1.58

Look at this sequence and give its reported folding stability dG unfold. SAGGSAGGSAGGEVEVPKDASLVVTYPNGERKEVPVEDKVPVKGLPVYLLGPDGTLREIDSAGGSAGGSAGG [r7_54_TrMRF]
0.294

Look at this sequence and give its reported folding stability dG unfold. SAGGSAGGVVVVAKFPTREAVFVAPESLTPEQFAEALRRELGNPDAPLVDLEVRRVTPEELLAASAGGSAGG [r6_120_TrMRF]
-0.269

Look at this sequence and give its reported folding stability dG unfold. SAGGSAGGSAGSPPGSTTLRAETVVVELPAAEAYTPEGERVELPRVIVEETVERELEAGLSAGGSAGGSAGG [r11_907_JUSTAS]
0.427

Look at this sequence and give its reported folding stability dG unfold. SAGGSAGGMTPEEERRKKESPVPPVNKVTVKIPVPSSVSEEVAKEIAEKLEKESGAKKVEVILPSAGGSAGG [r6_517_JUSTAS]
0.257

Look at this sequence and give its reported folding stability dG unfold. SAGGMVTLTLPSPDGSTLTVTVEKDPNADYYRATVTTHHPDGTVTVTESVIHPDGTTTTLATTTLPASAGGS [r16_213_JUSTAS]
2.11

Look at this sequence and give its reported folding stability dG unfold. SAGGKIKIQFNGQEFTITEFEIIEPQPNKGGGPYYRIRIKFPNGPMEIMIPPNMPPEIKPGDTFTIASAGGS [r16_638_TrROS]
1.8

Look at this sequence and give its reported folding stability dG unfold. SSSSMKTVFDPNRPYPRTVLVTFLPDGTVVITAPGKKLSTVKVEIEPPPPLELRPRVSPNGERSPGYLRLGS [r1_496_JUSTAS]
1.1

# credit: the supplement of paper PMC12764529
